test: Intrinsic clearance in human liver microsomes at 1 uM after 30 mins in presence of NADPH; type: ADME; details: read-out: CLH
readoutName: microsomal CLint at 1 µM

So, Nc1ccc(S(=O)(=O)N2CCN(c3ncc(C(O)(C(F)(F)F)C(F)(F)F)cc3-c3cccc4[nH]ncc34)CC2)cn1 ? Its microsomal CLint at 1 µM was 42 µL/min/mg

The recorded microsomal CLint at 1 µM for COc1cncc(-c2cc(C(O)(C(F)(F)F)C(F)(F)F)cnc2N2CCN(S(=O)(=O)c3ccc(N)nc3)CC2)c1 is 44 µL/min/mg

Input Cc1c(-c2cc(C(O)(C(F)(F)F)C(F)(F)F)cnc2N2CCN(S(=O)(=O)c3ccc(N)nc3)CC2)cnn1C . Output microsomal CLint at 1 µM: 28 µL/min/mg

microsomal CLint at 1 µM in this record for CCn1cc(-c2cc(C(O)(C(F)(F)F)C(F)(F)F)cnc2N2CCN(S(=O)(=O)c3ccc(N)nc3)CC2)cn1 : 20 µL/min/mg

Form: molecule = COc1cc(C(O)(C(F)(F)F)C(F)(F)F)cnc1N1CCN(S(=O)(=O)c2ccc(N)nc2)CC1 ; microsomal CLint at 1 µM = < 14 µL/min/mg

Recorded result, Nc1ccc(S(=O)(=O)N2CCN(c3ncc(C(O)(C(F)(F)F)C(F)(F)F)cc3-c3cccc(F)c3)CC2)cn1 , microsomal CLint at 1 µM: 25 µL/min/mg

What the record says about Nc1ccc(S(=O)(=O)N2CCN(c3ncc(C(O)(C(F)(F)F)C(F)(F)F)cc3-c3ccc4sccc4c3)CC2)cn1 : microsomal CLint at 1 µM is 48 µL/min/mg

Note to self: microsomal CLint at 1 µM recorded for COc1ccc(-c2cc(C(O)(C(F)(F)F)C(F)(F)F)cnc2N2CCN(S(=O)(=O)c3ccc(N)nc3)CC2)cn1 was 25 µL/min/mg

The reported microsomal CLint at 1 µM of the molecule Nc1ccc(S(=O)(=O)N2CCN(c3ncc(C(O)(C(F)(F)F)C(F)(F)F)cc3C#CCO)CC2)cn1 was < 14 µL/min/mg

Record Cc1ccc(-c2cc(C(O)(C(F)(F)F)C(F)(F)F)cnc2N2CCN(S(=O)(=O)c3ccc(N)nc3)CC2)cn1 , field microsomal CLint at 1 µM: 43 µL/min/mg

Record summary for Nc1ccc(S(=O)(=O)N2CCN(c3ncc(C(O)(C(F)(F)F)C(F)(F)F)cc3-c3cccnc3)CC2)cn1 : reported microsomal CLint at 1 µM = 17 µL/min/mg

Sure, the documented microsomal CLint at 1 µM for Nc1ccc(S(=O)(=O)N2CCN(c3ncc(C(O)(C(F)(F)F)C(F)(F)F)cc3C#CCCO)CC2)cn1 is < 14 µL/min/mg

The recorded microsomal CLint at 1 µM for CC(C)n1cc(-c2cc(C(O)(C(F)(F)F)C(F)(F)F)cnc2N2CCN(S(=O)(=O)c3ccc(N)nc3)CC2)cn1 is 38 µL/min/mg

# microsomal CLint at 1 µM (molecule: Nc1ccc(S(=O)(=O)N2CCN(c3ncc(C(O)(C(F)(F)F)C(F)(F)F)cc3Cl)CC2)cn1 ) is < 14 µL/min/mg

molecule Nc1ccc(S(=O)(=O)N2CCN(c3ncc(C(O)(C(F)(F)F)C(F)(F)F)cc3-c3cncc(F)c3)CC2)cn1 , microsomal CLint at 1 µM observed: 24 µL/min/mg

Item: Nc1ccc(S(=O)(=O)N2CCN(c3ncc(C(O)(C(F)(F)F)C(F)(F)F)cc3-c3ccc4[nH]ncc4c3)CC2)cn1 | microsomal CLint at 1 µM: 27 µL/min/mg
